Values from PubChem BioAssay AID256

Tested on: CD2F1 mice, L1210 leukemia ip, survival T/C
TEST PROTOCOL: NCI In Vivo Anticancer Drug Screen. Data for tumor model L1210 Leukemia (intraperitoneal) in CD2F1 (CDF1) mice
CONDITIONS: endpoint: mean survival time; dose: 50.0 mg/kg/injection; schedule: Q01DX009 (ip); vehicle: saline with Tween-80; higher = longer survival
Toxic doses and inconclusive results are not listed.
READOUT TYPE: T/C

Form: compound = "O=C(O)CCC(=O)CC1CCCCC1" ; T/C = 98 % of control

Form: compound = "O=C1CN(Cc2ccc3c(c2)OCO3)NO1" ; T/C = 113 % of control

Form: compound = COc1cc(CC2c3cc(OC)c(OC)cc3CCN2C)c(Oc2cc3c(cc2OC)-c2c(OC)c(OC)c(OC)c4c2C(C3)N(C)CC4)cc1OC (stereo unspecified) ; T/C = 95 % of control

Form: compound = NC(CCC(=O)Nc1cccc2ccccc12)C(=O)O (stereo unspecified) ; T/C = 98 % of control

Form: compound = "COc1ccc2c(c1)C/C(=N\O)C2=O" ; T/C = 97 % of control

Form: compound = "O=C1c2ccccc2C(=O)N1Cc1ccc([N+](=O)[O-])cc1Cl" ; T/C = 87 % of control

Form: compound = "Cc1ccc(/C=N/NC(=O)CNC(=O)Nc2cccc([N+](=O)[O-])c2)cc1" ; T/C = 92 % of control

Form: compound = CC1CCC(NC2=NCCO2)C(C)C1 (stereo unspecified) ; T/C = 101 % of control

Form: compound = CC(=O)Oc1ccc(CC2N=C(c3ccccc3)OC2=O)cc1 (stereo unspecified) ; T/C = 87 % of control

Form: compound = "COc1ccc(OCCOC(=O)Nc2ccc(C)c([N+](=O)[O-])c2)cc1" ; T/C = 92 % of control

Form: compound = CC(=O)OCC1OC(N=C=S)C(OC(C)=O)C(OC(C)=O)C1OC(C)=O (stereo unspecified) ; T/C = 115 % of control

----------
Tested on: CD2F1 mice, L1210 leukemia ip, survival T/C
TEST PROTOCOL: NCI In Vivo Anticancer Drug Screen. Data for tumor model L1210 Leukemia (intraperitoneal) in CD2F1 (CDF1) mice
CONDITIONS: endpoint: mean survival time; dose: 50.0 mg/kg/injection; schedule: Q04DX002 (ip); vehicle: saline with Tween-80; higher = longer survival
Toxic doses and inconclusive results are not listed.
Would you kindly list T/C for each of these molecules?

For the molecule "CC1=C(N)C(=O)N(C)C1=O" , the measured T/C on CD2F1 mice, L1210 leukemia ip, survival T/C was 95 % of control

For the molecule "c1ccc(C[S][Sn]([c]2ccccc2)([c]2ccccc2)[c]2ccccc2)cc1" , the measured T/C on CD2F1 mice, L1210 leukemia ip, survival T/C was 102 % of control

For the molecule "O=c1c2cccc3cccc(c4n1NC=c1ccccc1=4)c32" , the measured T/C on CD2F1 mice, L1210 leukemia ip, survival T/C was 92 % of control

For the molecule CCOC(=O)C(=O)C1CCc2c(ccc3ccccc23)C1=O (configuration not stated) , the measured T/C on CD2F1 mice, L1210 leukemia ip, survival T/C was 93 % of control

For the molecule "O=N[O-].O=N[O-].[Co].[NH-]CC[NH-].[NH-]CC[NH-]" , the measured T/C on CD2F1 mice, L1210 leukemia ip, survival T/C was 93 % of control

For the molecule "Cc1[nH]c2ccc(N=CN(C)C)cc2c1C" , the measured T/C on CD2F1 mice, L1210 leukemia ip, survival T/C was 111 % of control

For the molecule "CCCOC(=O)COc1ccc(F)cc1F" , the measured T/C on CD2F1 mice, L1210 leukemia ip, survival T/C was 100 % of control

For the molecule C[N+](C)(C)C1CCCC1O (configuration not stated) , the measured T/C on CD2F1 mice, L1210 leukemia ip, survival T/C was 98 % of control

For the molecule "COC1SCCCS1" , the measured T/C on CD2F1 mice, L1210 leukemia ip, survival T/C was 105 % of control

For the molecule COC1=C(Br)C(O)C2(C=C1Br)CC(C(=O)NCCCCNC(=O)C1=NOC3(C=C(Br)C(OC)=C(Br)C3O)C1)=NO2 (configuration not stated) , the measured T/C on CD2F1 mice, L1210 leukemia ip, survival T/C was 94 % of control

For the molecule "Cc1nnc(-c2ccccc2)c(-c2ccccc2)n1" , the measured T/C on CD2F1 mice, L1210 leukemia ip, survival T/C was 103 % of control

For the molecule "O=C1CCCN1c1ccc([N+](=O)[O-])cc1" , the measured T/C on CD2F1 mice, L1210 leukemia ip, survival T/C was 102 % of control
